Reference source: patent US9777012B2

- System Tested: EGFR (Homo sapiens, UniProt P00533)
- Construct: tumor cell lines naturally expressing high levels of EGFR (A431); endogenous in cells
- Sequence (P00533 25-1210): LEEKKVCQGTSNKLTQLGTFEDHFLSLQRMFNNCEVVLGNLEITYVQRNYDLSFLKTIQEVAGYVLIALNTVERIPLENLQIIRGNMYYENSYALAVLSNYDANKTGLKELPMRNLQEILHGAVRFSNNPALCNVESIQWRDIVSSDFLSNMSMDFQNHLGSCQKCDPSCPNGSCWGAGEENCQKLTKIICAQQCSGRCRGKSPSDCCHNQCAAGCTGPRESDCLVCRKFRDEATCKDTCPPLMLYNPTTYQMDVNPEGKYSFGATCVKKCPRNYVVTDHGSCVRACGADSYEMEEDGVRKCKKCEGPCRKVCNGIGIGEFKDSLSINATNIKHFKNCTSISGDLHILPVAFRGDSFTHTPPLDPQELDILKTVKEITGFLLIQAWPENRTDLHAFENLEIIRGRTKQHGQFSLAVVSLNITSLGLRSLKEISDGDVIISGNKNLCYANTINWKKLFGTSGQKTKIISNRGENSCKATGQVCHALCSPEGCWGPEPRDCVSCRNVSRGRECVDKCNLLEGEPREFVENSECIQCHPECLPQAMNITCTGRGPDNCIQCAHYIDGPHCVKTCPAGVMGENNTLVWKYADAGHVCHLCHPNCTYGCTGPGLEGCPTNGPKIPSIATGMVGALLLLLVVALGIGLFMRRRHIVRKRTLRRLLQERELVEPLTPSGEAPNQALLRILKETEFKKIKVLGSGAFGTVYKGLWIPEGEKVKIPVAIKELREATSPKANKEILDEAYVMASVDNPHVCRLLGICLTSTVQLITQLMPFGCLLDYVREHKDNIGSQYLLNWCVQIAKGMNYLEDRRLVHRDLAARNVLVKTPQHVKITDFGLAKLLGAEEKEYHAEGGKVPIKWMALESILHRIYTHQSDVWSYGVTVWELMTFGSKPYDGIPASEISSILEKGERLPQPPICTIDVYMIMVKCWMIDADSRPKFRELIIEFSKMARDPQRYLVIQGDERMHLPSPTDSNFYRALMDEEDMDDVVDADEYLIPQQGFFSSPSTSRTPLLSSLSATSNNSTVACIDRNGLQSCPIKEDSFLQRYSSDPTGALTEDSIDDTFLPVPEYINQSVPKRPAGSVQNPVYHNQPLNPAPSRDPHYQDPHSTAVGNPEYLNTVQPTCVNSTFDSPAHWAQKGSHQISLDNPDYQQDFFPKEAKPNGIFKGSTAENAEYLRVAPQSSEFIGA
- Experiment Summary: Phosphotyrosine ELISA cytoblot, EGFR (A431 cells)
- Reported Conditions: EGF stimulation, read-out: EGFR kinase inhibition
pIC50: −log10 of the molar value.
Recorded Metric: pIC50

> print(dat)
                                 cpd.smiles  recorded.metric  reading
1     CCCOc1ccc(N(C)c2nc(C)nc3oc(C)cc23)cc1            pIC50   < 6.30
2      CCOc1ccc(N(C)c2nc(C)nc3oc(C)cc23)cc1            pIC50     6.99
3  COc1cc(N(C)c2nc(C)nc3oc(C)cc23)cc(OC)c1OC            pIC50   < 6.30
4     COc1ccc2c(ccn2-c2nc(C)nc3oc(C)cc23)c1            pIC50   < 6.30
